- tested.system: T1, Processed stabilized hMPV PreF trimer (115BV) (human metapneumovirus, strain B2)
- T1 construct: also called Processed hMPV PreF trimer; processed PreF
- procedure.details: BLI, mAb on anti-human Fc sensor
# Octet binding response annotations
recorded.metric: Octet binding response (nm)

[
  {
    "binder": "M2C10 (antibody, V domains shown, IgG) VH: QVQLVESGGGVVQPGRSLRLSCAASGFTFNNYAMHWVRQAPGKGLEWVALISDDGSKKYFADALKGRFTIFRDNSKNTLYLQMNSLRAEDTAVYYCARDPTPLGEYYFDYWGQGTLVTVSS VL: DIQMTQSPSSLSASVGDRVTITCRASQTISGYLNWYQQKPGKAPNLLIYTASSLESGVPSRFSGSGSETDFTLTISSLQPEDFATYYCQQSYRMPLTFGGGTRVSLK",
    "recorded.metric": "Octet binding response",
    "value.reported": 0.0939
  },
  {
    "binder": "M4A10 (antibody, V domains shown, IgG) VH: QVQLVQSGAEVKKPGASVKVSCKASGYTFNGHYLHWVRQAPGQGLEWMGWINPNSGGTDYAQRFQGRVTMTRGTSISTAYMELSRLTSDDTAVYFCARDNFGFWSASSGRHNWLDSWGQGTLVIVSS VL: NFMLTQPHSVSESPGKTVTISCTRSTGNIASNYVQWYQQRPGSSPTTVIYEDNQRPSAVPDRFSGSIDSSSNSASLTVSGLRTEDEADYYCQSYDSGHHVVFGGGTKLTVL",
    "recorded.metric": "Octet binding response",
    "value.reported": 0.23
  },
  {
    "binder": "M4C08 (antibody, V domains shown, IgG) VH: EVQLVESGGTLVQPGGSLRLSCAASGFKFNAFSMNWVRQAPGKGLEWVSYIDSRSNIIYYADSVKGRFTISRDNAKNSLYLRMSSLRDEDTAVYYCAKALCVVNYDFWSGLLGCAMDVWGQGTTVTVSS VL: QSVLTQPPSVSGAPGQRVTISCTGNTSNIGAGFDVHWYQQVPGTAPKLLIYANTDRPSGVPDRFSASKSGTSASLAITGLQAEDEADYYCQTYDRSLSGSTVFGGGTKLTVL",
    "recorded.metric": "Octet binding response",
    "value.reported": 0.0268
  },
  {
    "binder": "M2A11 (antibody, V domains shown, IgG) VH: QVQLQESGPGLVKPSETLSLTCTVSGGSITSHYWSWVRQPPGKGLEWIAYIYYSGSTDYNPSLKSRVTISLDTSKNQVSLRLNSVTTADTAVYFCARCMPLYHVMHVWGHGTTVTVSS VL: QSVLTQPPSVSGAPGQRVTISCTGSSSDIGAGSDVHWYQQLPGTAPKLLIYGNTNRPSGVPDRFSGSKSGTSASLAITGLQAEDEADYYCQSYDSGLSGYVFGGGTKLTVL",
    "recorded.metric": "Octet binding response",
    "value.reported": 0.0658
  },
  {
    "binder": "M1C7 (antibody, V domains shown, IgG; also called MIC7) VH: QVQLVESGGGLVQPGRSLRLSCAASGFTFSSYAMHWVRQAPGKGLEWVAIITYDGSGKYYADSLEGRITISRDDPKSMLYLHMRSLTAEDTAVYYCVKSGSFSSAFWLEDWGQGTLVTVSS VL: EIVLTQSPATLSLSPGERATLSCRASQSISNFVAWYQQKPGQAPRLLIYDASNGATGTPARFSGSGSGTDFTLTISSLEPEDFAVYYCQQRSTWTFGQGTKVEIKR",
    "recorded.metric": "Octet binding response",
    "value.reported": 0.359
  },
  {
    "binder": "M3A03 (antibody, V domains shown, IgG) VH: QVQLVQSGAEVKKPGASVKVSCKASAYTFTSYGITWVRQAPGQGLEWMGWISAYRGNTKYAQKLQGRVTMTTDTSTSTASMELRSLRSDDTAVYYCARTSYYDSSYYPIDYWGQGTLVTVSS VL: SYVLTQPPSVSVAPGQTARITCGGNNIGSKSVQWYQQKPGQAPVLVVYDDSDRPSGIPERFSGSNSGNTATLTISRVEAGDEADYYCQVWDSSGDRVVFGGGTKLTVL",
    "recorded.metric": "Octet binding response",
    "value.reported": 0.0409
  }
]
